Source listed as a melting point compilation (Tetko et al.; mined from patent text by program, amines drawn as free bases though some values may be those of a salt).

VALUE_KIND: melting point (°C)

1. O=C1c2cc3nnn(CCC4CCCCC4)c(=O)c3cc2OC2CCCN12 (stereo not given)
2. Cc1ccc(S(=O)(=O)Nc2ccc(F)cc2[N+](=O)[O-])cc1
// query Compare the recorded melting point of 1 and 2 ; state which is larger. Indicate which entry you chose by stating its label.
// result 1

---

VALUE_KIND: melting point

Example compounds with recorded melting point:
* C=CCOC(=O)N[C@H]1CC(=O)O[C@H]1OCc1ccccc1 | 108 to 110 °C
* COc1cc(Nc2cc(-c3ccccc3)on2)ccc1-c1cnco1 | 173 to 175 °C
* CCC(OC(C)=O)c1ccc(Cl)c2nc3n(c12)CCCN3c1ncc(Cl)cc1Cl (stereo not given) | 157 to 159 °C
* N#Cc1ncc(NCCO)nc1N1CCN(c2ccc(F)cc2)CC1 | 149 to 151 °C
* Nc1c(Br)cc(S(N)(=O)=O)cc1[N+](=O)[O-] | 216 to 218 °C

// query Look up melting point of O=C(O)c1ccc(OCCCCCCc2ccc3cc(O)c(O)cc3c2)cc1O and report it.
// result 190 to 192 °C

// query Look up melting point of Cc1c(-c2ccccc2)oc2c(C(=O)OCC3CO3)cccc2c1=O (stereo not given) and report it.
// result 103 to 105 °C

// query Look up melting point of CCCCNC(=O)NS(=O)(=O)c1cc(I)ccc1C(=O)OC and report it.
// result 128 to 130 °C

// query Look up melting point of Cc1nn(-c2ccc(C#N)c(Cl)c2)c(C)c1Cc1ccc(C(=O)NC(C)(C)C)cc1 and report it.
// result 135 to 136 °C

// query Look up melting point of O=C(Nc1ccc(OCCN2CCCC2=O)c2ccccc12)c1cc(F)cc(N2CCCCC2)c1 and report it.
// result 161 to 162 °C

// query Look up melting point of Nc1cccc(-c2ccc(CCNCc3cccc(Cl)c3)c3ccccc23)n1 and report it.
// result 60 to 75 °C

// query Look up melting point of CC(NC(=O)Cc1cc(F)cc(F)c1)C(=O)NC1C(=O)NCc2ccccc21 (stereo not given) and report it.
// result 243 to 244 °C

// query Look up melting point of CC(=O)c1ccc(OCCNC(=O)OCc2ccccc2)cc1 and report it.
// result 80 to 81 °C

// query Look up melting point of O=C(NCCO)c1cccc(-c2cccc3cc(Cc4cc(F)cc(Cl)c4)sc23)n1 and report it.
// result 139 to 140 °C

// query Look up melting point of CCCc1nc(-c2cccnc2)cnc1NN and report it.
// result 162 to 163 °C

// query Look up melting point of COc1cc2c(N3CCN(C(=O)Nc4ccc(Oc5ccccc5)cc4)CC3)ncnc2cc1OCc1ccccc1 and report it.
// result 220 to 221 °C

// query Look up melting point of O=C(NCc1ccc(Cl)c(Cl)c1)c1ccc2n1Cc1ccccc1N(C(=O)CSc1ccc(Br)cc1)C2 and report it.
// result 150 °C

// query Look up melting point of O=C(Nc1ccc(Cl)c(Cl)c1)c1cc(C(F)(F)F)cc([N+](=O)[O-])c1Cl and report it.
// result 202 °C

// query Look up melting point of Cc1cc(C)c(/C=C2\C(=O)N(CN3CCN(C)CC3)c3ccccc32)[nH]1 and report it.
// result 160 to 164 °C

// query Look up melting point of C#CCn1c2ccccc2c2cc(Br)ccc21 and report it.
// result 142 to 149 °C
